// provenance: the supplement of paper PMC9694430

Property: thermal shift delta Tm; scope: individual molecules
System: LOC_OS04G57630-cb004
test-name: thermal shift delta Tm vs DMSO control; higher = stronger stabilization (binding);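 note: purified Escherichia coli-expressed rice kinase domain construct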
test-parameters: 12.5 µM; protein concentration 2 µM

# molecule, thermal shift delta Tm / °C
measured = [
    ("CN1CCN(CCOc2cc(OC3CCOCC3)c3c(Nc4c(Cl)ccc5c4OCO5)ncnc3c2)CC1 [Saracatinib (AZD0530)]", 0.78),
    ("COc1cc2ncnc(Oc3ccc(CC(=O)Nc4cnn(C(C)C)c4)cc3)c2cc1OC", 1.78),
    ("O=C(Nc1cccc(Nc2ncc(Br)c(NCCc3cnc[nH]3)n2)c1)N1CCCC1", 7.51),
    ("Cc1c(NC(=O)c2ccc(C(C)(C)C)cc2)cccc1-c1cn(C)c(=O)c(Nc2ccc(C(=O)N3CCOCC3)cc2)n1", 0.37),
    ("O=C(/C=C/c1ccc2ccccc2n1)c1ccncc1", 3.08),
    ("O=C(O)c1ccc2c(c1)nc(Nc1cccc(Cl)c1)c1ccncc12 [Silmitasertib (CX-4945)]", 0.56),
    ("CC(C)N(CCC(=O)c1ccc2ccccc2c1)Cc1ccccc1", 0.41),
    ("CC[C@@](C)(Nc1ccnc(-c2c[nH]c3ncccc23)n1)C(=O)NCC(F)(F)F [Decernotinib (VX-509)]", 0.07),
    ("CC#CC(=O)Nc1ccc2ncnc(Nc3cccc(Br)c3)c2c1", 1.19),
]

###

Test system: LOC_OS02G45750-cb003
test-name: thermal shift delta Tm vs DMSO control; higher = stronger stabilization (binding)
test-parameters: 12.5 µM; protein concentration 2 µM
Some compounds, each annotated with its measured thermal shift delta Tm.

# compound, target-or-test-system, unit-symbol, thermal shift delta Tm
records = [
    ("O=c1ccc2ccc(O)c(O)c2o1", "LOC_OS02G45750-cb003", "°C", 1.1),
    ("O=C1Nc2ccc(CN3C(=O)CSC3=O)cc2/C1=C/c1cc(CN2CCOCC2)c[nH]1", "LOC_OS02G45750-cb003", "°C", 2.91),
    ("Cn1cc(-c2cnn3c(N)c(Br)c([C@@H]4CCCNC4)nc23)cn1", "LOC_OS02G45750-cb003", "°C", 2.88),
    ("Cc1cc(Nc2ncnc3ccc(-c4ccc(CNCCS(C)(=O)=O)o4)cc23)ccc1Oc1ccn2ncnc2c1", "LOC_OS02G45750-cb003", "°C", 2.59),
    ("Cc1cc([C@@H](C)Nc2ccccc2C(=O)O)c2nc(N3CCOCC3)cc(=O)n2c1", "LOC_OS02G45750-cb003", "°C", 0.61),
    ("CN1CCN(C2CCN(C(=O)Nc3cc(Oc4ccc(NC(=O)C5(C(=O)Nc6ccc(F)cc6)CC5)c(F)c4)ccn3)CC2)CC1 [Golvatinib (E7050)]", "LOC_OS02G45750-cb003", "°C", 0.4),
    ("S=C(NCc1ccc2c(c1)OCO2)N1CCN(c2ncnc3c2oc2ccccc23)CC1", "LOC_OS02G45750-cb003", "°C", 0.86),
    ("Cn1nccc1Nc1nccc(-c2ccn([C@H](CO)c3ccc(Cl)c(F)c3)c(=O)c2)n1", "LOC_OS02G45750-cb003", "°C", 0.71),
    ("COc1cc(N2CCN(C)CC2)ccc1Nc1nccc(-c2cn(C)c3cnccc23)n1", "LOC_OS02G45750-cb003", "°C", 2.73),
    ("N[C@@H]1CCCN(c2c(/C=C3\\SC(=O)NC3=O)cccc2-c2ccccc2)C1", "LOC_OS02G45750-cb003", "°C", 0.09),
    ("COc1cc2ncnc(Nc3ccc(Cl)cc3F)c2cc1OC", "LOC_OS02G45750-cb003", "°C", 2.84),
    ("O=C(/C=C/c1ccc2ccccc2n1)c1ccncc1", "LOC_OS02G45750-cb003", "°C", 4.53),
    ("CO[C@H]1C[C@@H]2CC[C@@H](C)[C@@](O)(O2)C(=O)C(=O)N2CCCC[C@H]2C(=O)O[C@H]([C@H](C)C[C@@H]2CC[C@@H](OC(=O)C(C)(CO)CO)[C@H](OC)C2)CC(=O)[C@H](C)/C=C(\\C)[C@@H](O)[C@@H](OC)C(=O)[C@H](C)C[C@H](C)/C=C/C=C/C=C/1C", "LOC_OS02G45750-cb003", "°C", 0.69),
    ("CS(=O)(=O)c1ccc(-c2cnc(N)c(C(=O)Nc3ccccc3)n2)cc1", "LOC_OS02G45750-cb003", "°C", 4.49),
    ("Cc1c(C(=O)Nc2ccc(Oc3ccnc4[nH]cc(-c5ccccc5)c34)c(F)c2)c(=O)n(-c2ccc(F)cc2)n1C", "LOC_OS02G45750-cb003", "°C", 1.92),
    ("CN1CCN(c2ccc(OC(F)(F)F)c(Nc3ncc4c(n3)-c3c(c(C(N)=O)nn3CCO)CC4)c2)CC1", "LOC_OS02G45750-cb003", "°C", 0.67),
    ("Cc1ccc(S(=O)(=O)/C=C/C#N)cc1", "LOC_OS02G45750-cb003", "°C", -0.28),
]
